Entry source: BindingDB's records for doi:10.1016/j.bmc.2005.11.005

target_or_system: Tyrosine-protein phosphatase non-receptor type 1 [1-298] (Homo sapiens, UniProt P18031)
Construct: 1-298
Sequence (P18031 1-298): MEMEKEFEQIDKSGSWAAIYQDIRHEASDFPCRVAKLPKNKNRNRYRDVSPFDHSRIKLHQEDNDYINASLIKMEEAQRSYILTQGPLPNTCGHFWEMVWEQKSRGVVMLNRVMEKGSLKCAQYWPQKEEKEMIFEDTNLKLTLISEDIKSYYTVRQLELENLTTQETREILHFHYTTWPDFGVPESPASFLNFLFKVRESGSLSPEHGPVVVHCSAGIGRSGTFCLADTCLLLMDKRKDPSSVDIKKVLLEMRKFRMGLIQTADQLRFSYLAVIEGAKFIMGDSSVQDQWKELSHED
procedure_details: Enzymatic Assay
setup_conditions: 25 °C
readout_type: pKi
Please report pKi as the negative decimal logarithm of the molar concentration, giving only the number.

CCS(=O)(=O)N1CCC(Nc2ccc3c(c2)sc2c(OCC(=O)O)c(C(=O)O)sc23)CC1 = 5.80
O=C(O)COc1c(C(=O)O)sc2c1sc1c(NC3CCCCC3)cccc12 = 5.77
O=C(O)COc1c(C(=O)O)sc2c1sc1cc(NC3CCCCC3)ccc12 = 6.13

Q. // output pKi; input O=C(O)COc1c(C(=O)O)sc2c1sc1cc(Cl)ccc12 ; system Tyrosine-protein phosphatase non-receptor type 1 [1-298] (Homo sapiens, UniProt P18031)
A. 5.46

Q. Please look at Cc1cccc2c(OCC(=O)O)c(C(=O)O)sc12 and tell me its recorded pKi on Tyrosine-protein phosphatase non-receptor type 1 [1-298] (Homo sapiens, UniProt P18031).
A. 4.43

###

target_or_system: Tyrosine-protein phosphatase non-receptor type 1 [1-298] (Homo sapiens, UniProt P18031)
Construct: 1-298
procedure_details: Enzymatic Assay
setup_conditions: pH 7; 22 °C
pKi: −log10 of the molar value.
Could you label it yes (1) if measured pKi is 4 or higher, and no (0) otherwise?

O=C(O)COc1c(C(=O)O)sc2ccccc12 = no (0)
O=C(O)COc1c(C(=O)O)sc2ccsc12 = no (0)
O=C(O)COc1c(C(=O)O)sc2cc(Cl)ccc12 = yes (1)
CC(Oc1c(C(=O)O)sc2cc(Cl)ccc12)C(=O)O (centres undefined) = no (0)

Q. Is pKi at least 4? Consider O=C(O)COc1c(C(=O)O)sc2cc(-c3ccc(O)cc3)ccc12
A. yes (1)

Q. Confirm if pKi reported for the compound O=C(O)COc1c(C(=O)O)sc2cc(-c3cccs3)ccc12 is 4 or above.
A. yes (1)

Q. In plain terms: is recorded pKi at least 4 for Cc1cc2sc(C(=O)O)c(OCC(=O)O)c2cn1 ?
A. no (0)

Q. # bool: pKi of O=C(O)COc1c(C(=O)O)sc2cc(C(=O)Nc3ccn(-c4ccccc4)n3)ccc12 >= 4
A. yes (1)

Q. Could you verify whether the entry O=C(O)COc1cc2ccccc2cc1C(=O)O shows pKi of no less than 4?
A. no (0)

###

target_or_system: Tyrosine-protein phosphatase non-receptor type 1 [1-298] (Homo sapiens, UniProt P18031)
Construct: 1-298
procedure_details: Enzymatic Assay
setup_conditions: pH 7; 22 °C
Listing of entries alongside the reported Ki.
Number in µM, nothing else.

Here's what some known entries look like.
O=C(O)COc1c(C(=O)O)sc2cc(-c3ccccc3)ccc12 = 128
O=C(O)COc1c(C(=O)O)sc2cccnc12 = 77
O=C(O)c1sc2cc(Cl)ccc2c1OC(F)C(=O)O (stereo not given) = 52

// next entry
Q. Determine reported Ki for O=C(O)COc1c(C(=O)O)sc2cc(Br)ccc12 ; test system: Tyrosine-protein phosphatase non-receptor type 1 [1-298] (Homo sapiens, UniProt P18031).
A. 42
